List of MIC values.
System: E. coli TOP10F´/pMBLe
Assay: MIC by broth microdilution, empty-vector control clone
Format: cell-based
Details: Escherichia coli; E. coli TOP10F´ with empty vector pMBLe; 50 µM IPTG; combinations given as β-lactam/inhibitor; read-out: Minimum inhibitory concentration

Compound	MIC
C[C@@H](O)[C@H]1C(=O)N2C(C(=O)O)=C(SCCN=CN)C[C@H]12	0.12 µg/mL
C[C@@H](O)[C@H]1C(=O)N2C(C(=O)O)=C(S[C@@H]3CN[C@H](C(=O)N(C)C)C3)[C@H](C)[C@H]12	≤ 0.03 µg/mL
CO/N=C(\C(=O)N[C@@H]1C(=O)N2C(C(=O)O)=C(CSc3nc(=O)c(=O)[nH]n3C)CS[C@H]12)c1csc(N)n1	≤ 0.25 µg/mL
CO/N=C(\C(=O)N[C@@H]1C(=O)N2C(C(=O)[O-])=C(C[N+]3(C)CCCC3)CS[C@H]12)c1csc(N)n1 [Cefepime]	≤ 0.25 µg/mL
C[C@H]1[C@H](NC(=O)/C(=N\OC(C)(C)C(=O)O)c2csc(N)n2)C(=O)N1S(=O)(=O)O	≤ 0.25 µg/mL

----------
Test system: E. coli TOP10F´ pMBLe/KPC-2
Assay: MIC by broth microdilution, KPC-2-producing recombinant clone
Type: cell-based
Conditions: Escherichia coli, 50 µM IPTG, combinations given as β-lactam/inhibitor, read-out: Minimum inhibitory concentration
List of MIC values.

Molecule	MIC [µg/mL]
CC(=O)OCC1=C(C(=O)O)N2C(=O)[C@@H](NC(=O)Cc3cccs3)[C@H]2SC1	256
CC1(C)S[C@@H]2[C@H](NC(=O)[C@H](N)c3ccccc3)C(=O)N2[C@H]1C(=O)O	1020
C[C@@H](O)[C@H]1C(=O)N2C(C(=O)O)=C(SCCN=CN)C[C@H]12	2
CC(C)(O/N=C(\C(=O)N[C@@H]1C(=O)N2C(C(=O)[O-])=C(C[n+]3ccccc3)CS[C@H]12)c1csc(N)n1)C(=O)O	2
C[C@@H](O)[C@H]1C(=O)N2C(C(=O)O)=C(S[C@@H]3CN[C@H](C(=O)N(C)C)C3)[C@H](C)[C@H]12	1
CO/N=C(\C(=O)N[C@@H]1C(=O)N2C(C(=O)[O-])=C(C[N+]3(C)CCCC3)CS[C@H]12)c1csc(N)n1 [Cefepime]	1

----------
Target: KPC-14 (Klebsiella pneumoniae, UniProt Q9F663, DEL241-242)
Construct: amplify the entire blaKPC-14 gene with the cloning primers
Sequence (Q9F663 25-240, added parts left off, stated change not applied): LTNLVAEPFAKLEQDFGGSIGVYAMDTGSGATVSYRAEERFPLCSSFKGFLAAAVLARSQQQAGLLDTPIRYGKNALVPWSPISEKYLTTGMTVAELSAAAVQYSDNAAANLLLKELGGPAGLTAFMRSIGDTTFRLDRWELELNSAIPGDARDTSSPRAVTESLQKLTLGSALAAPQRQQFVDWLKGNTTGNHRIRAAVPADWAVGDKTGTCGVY
Test: Clavulanic acid inhibition and hydrolysis, KPC-14
Conditions: nitrocefin competition, read-out: Ki app

Molecule	Value units	Ki
O=C(O)[C@H]1/C(=C/CO)O[C@@H]2CC(=O)N21 [clavulanic acid]	µM	8.5

These data points were gathered from paper PMC12135508.
